Target: Cytochrome P450 2C8 (Homo sapiens, UniProt P10632)
Sequence (P10632 whole entry): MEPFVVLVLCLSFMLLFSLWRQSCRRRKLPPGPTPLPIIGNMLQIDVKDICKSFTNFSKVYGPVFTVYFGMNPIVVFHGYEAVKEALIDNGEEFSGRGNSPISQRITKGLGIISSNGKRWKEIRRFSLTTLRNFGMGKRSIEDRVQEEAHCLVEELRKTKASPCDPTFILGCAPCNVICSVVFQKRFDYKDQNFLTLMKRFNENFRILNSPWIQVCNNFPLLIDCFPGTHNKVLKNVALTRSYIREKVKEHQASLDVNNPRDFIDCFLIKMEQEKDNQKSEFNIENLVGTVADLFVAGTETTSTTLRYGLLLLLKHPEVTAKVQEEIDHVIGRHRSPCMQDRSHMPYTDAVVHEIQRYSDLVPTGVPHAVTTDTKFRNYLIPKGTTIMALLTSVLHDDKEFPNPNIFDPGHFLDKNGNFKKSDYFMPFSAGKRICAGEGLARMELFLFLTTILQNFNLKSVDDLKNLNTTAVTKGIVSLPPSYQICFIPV
pIC50: −log10 of the molar value.
readout.name: pIC50

## Input Form: Entry = "CN1CC[C@@H](NC(=O)Nc2ccc(C#N)cc2)C[C@@H]1c1nc2ccccc2[nH]1" | System = Cytochrome P450 2C8 (Homo sapiens, UniProt P10632) | pIC50 = ____
## Output < 4.52

* * *

Test: Half life in rat at 1 mg/kg, iv and 1 mg/kg, po
Type: ADME, organism-based
Conditions: in vivo
readout.name: half-life (h)
Field: numeric (h). Do not append units.

## Input May I ask what half-life has been recorded for "CN1CC[C@@H](NC(=O)Nc2ccc(C#N)cc2)C[C@@H]1c1nc2ccccc2[nH]1" ?
## Output 1.4

* * *

Assay: Chemical solubility of the compound in SGN at pH 1.2
Assay type: physicochemical
readout.name: solubility

## Input May I ask what solubility has been recorded for "CN1CC[C@@H](NC(=O)Nc2ccc(C#N)cc2)C[C@@H]1c1nc2ccccc2[nH]1.Cl.O" ?
## Output > 69 mg/mL

* * *

Assay: Drug excretion in rat bile at 2 mg/kg, iv
Type: ADME, organism-based
Design: dose 2 mg/kg, route intravenous
Conditions: read-out: Drug excretion
readout.name: dose excreted

## Input May I ask what dose excreted has been recorded for "CN1CC[C@@H](NC(=O)c2ccc3c(c2)OCCO3)C[C@@H]1c1nc2ccccc2[nH]1" ?
## Output < 5%

* * *

Molecular target: Protein smoothened (Mus musculus, UniProt P56726)
Sequence (P56726 whole entry): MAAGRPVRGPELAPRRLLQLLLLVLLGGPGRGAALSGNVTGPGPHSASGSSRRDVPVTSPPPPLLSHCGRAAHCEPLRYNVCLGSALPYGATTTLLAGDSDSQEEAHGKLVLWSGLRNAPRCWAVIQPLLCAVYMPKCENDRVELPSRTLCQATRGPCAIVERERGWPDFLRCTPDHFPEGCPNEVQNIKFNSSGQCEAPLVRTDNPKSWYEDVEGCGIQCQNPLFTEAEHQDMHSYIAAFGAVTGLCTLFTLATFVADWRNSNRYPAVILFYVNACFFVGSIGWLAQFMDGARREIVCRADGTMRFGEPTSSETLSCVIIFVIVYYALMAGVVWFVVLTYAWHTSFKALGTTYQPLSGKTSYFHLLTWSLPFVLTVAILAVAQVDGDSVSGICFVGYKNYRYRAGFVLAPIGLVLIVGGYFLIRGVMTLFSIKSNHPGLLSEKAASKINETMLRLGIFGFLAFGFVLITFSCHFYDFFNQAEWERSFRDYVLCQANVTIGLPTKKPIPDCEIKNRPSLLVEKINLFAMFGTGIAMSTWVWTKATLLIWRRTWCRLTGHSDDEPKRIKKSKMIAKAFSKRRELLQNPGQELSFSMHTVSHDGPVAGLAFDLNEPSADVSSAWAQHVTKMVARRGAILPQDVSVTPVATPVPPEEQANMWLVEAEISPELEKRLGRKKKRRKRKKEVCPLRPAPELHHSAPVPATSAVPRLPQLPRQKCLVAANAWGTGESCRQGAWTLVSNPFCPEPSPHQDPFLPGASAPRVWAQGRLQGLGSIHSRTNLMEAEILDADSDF
Experiment: Inhibition of Smo in mouse C3H10T1/2 cells using human recombinant SHH assessed as effect on SMO/SHH transient transcriptional activation after 20 hrs by Gli-luciferase reporter assay
So I've got a bunch of compounds here, and I need their IC50 values.

## Input May I ask what IC50 has been recorded for "COc1ccc(NC(=O)N[C@@H]2CCN(C)[C@@H](c3nc4ccccc4[nH]3)C2)cc1" ?
## Output 35 nM

## Input May I ask what IC50 has been recorded for "CN1CC[C@@H](NC(=O)Nc2cccnc2)C[C@@H]1c1nc2ccccc2[nH]1" ?
## Output 191 nM

## Input May I ask what IC50 has been recorded for "CN1CC[C@@H](NC(=O)Nc2ccc(C(F)(F)F)cc2)C[C@@H]1c1nc2ccccc2[nH]1" ?
## Output 5 nM

## Input May I ask what IC50 has been recorded for CN1CC[C@@H](NC(=O)Nc2ccc(C#N)cc2)C[C@@H]1c1nc2ccccc2[nH]1 [GLASDEGIB] ?
## Output 5 nM

## Input May I ask what IC50 has been recorded for "CN1CC[C@@H](NC(=O)c2ccc3c(c2)OCCO3)C[C@@H]1c1nc2ccccc2[nH]1" ?
## Output 43 nM

## Input May I ask what IC50 has been recorded for "CN1CC[C@@H](NC(=O)Nc2ccc3c(c2)OCCO3)C[C@@H]1c1nc2ccccc2[nH]1" ?
## Output 45 nM

## Input May I ask what IC50 has been recorded for "CN1CC[C@@H](NC(=O)Nc2cccc(C#N)c2)C[C@@H]1c1nc2ccccc2[nH]1" ?
## Output 72 nM

## Input May I ask what IC50 has been recorded for "CN1CC[C@@H](NC(=O)Nc2ccc(Cl)cc2)C[C@@H]1c1nc2ccccc2[nH]1" ?
## Output 20 nM

## Input May I ask what IC50 has been recorded for "CN1CC[C@@H](NC(=O)Nc2ccccc2)C[C@@H]1c1nc2ccccc2[nH]1" ?
## Output 103 nM

## Input May I ask what IC50 has been recorded for "O=C(N[C@@H]1CCC[C@H](c2nc3ccccc3[nH]2)C1)c1ccc2c(c1)OCCO2" ?
## Output 88 nM

## Input May I ask what IC50 has been recorded for "O=C(Nc1cccc(-c2nc3ccccc3[nH]2)c1)c1ccc2c(c1)OCCO2" ?
## Output 5 nM
